system: OVCAR-5; experiment: NCI tumour cell line growth inhibition, 48 h
Active and inactive are the calls of the source. No stated cut-off is given here; in the data, active = GI50 up to about 1.1 µM and inactive = higher.
For each record, write down the corresponding GI50.

For this compound ( `O=C(/C=C/c1c(O)ccc2ccccc12)c1cccc2ccccc12` ), measured GI50 is > 100 µM (inactive)

Recorded result, `COc1ccc(/C=C\c2cc(OC)c3c(c2)OCO3)c(O)c1O` , GI50: 26.7 µM (inactive)

Given item `CCOC1=C/C(=N\Nc2ccc([N+](=O)[O-])cc2)CCC1` , the value recorded as its GI50 is 42.4 µM (inactive)

Recorded result, C[C@]12CC(c3ccccc3O1)C(C(N)=O)C(=O)N2 (stereo partly specified) , GI50: > 100 µM (inactive)

// recorded GI50 for `COC(=O)c1c(C)nc(C)c(NO)c1-c1ccccc1C(F)(F)F` : 31.8 µM (inactive)

Item: `CC(=O)/C(=C/N1CCNC1=S)C(=O)Nc1ccccc1C` | GI50: > 100 µM (inactive)

###

test system: UACC-62; assay: NCI tumour cell line growth inhibition, 48 h
Active and inactive are the calls of the source. No stated cut-off is given here; in the data, active = GI50 up to about 1.1 µM and inactive = higher.
The reply should name one outcome from active, inactive

Exam item: Just curious, what result did CC1(c2ccc(F)cc2)C2C(=O)NC(=O)C1C(=O)NC2=O (centres undefined) get here?
Marked response: inactive

Exam item: Please indicate how the test categorized N#CN1CCC2CC(=O)CCC2C1 (centres undefined) .
Marked response: inactive

Exam item: Lab log entry: NC(=O)C(Nc1c(Cl)cccc1Cl)c1cc2cc(Br)ccc2nc1Cl (centres undefined) — outcome as called in the assay?
Marked response: inactive

Exam item: What is the recorded call for this molecule in the test? C/C(=C1\C(=O)C(c2ccccc2)N(c2ccccc2)C1=O)c1ccc(Cl)cc1 (centres undefined)
Marked response: inactive

Exam item: Field: outcome | Entry: ClC1CCC2OOC1O2 (centres undefined)
Marked response: inactive

Exam item: Dear all, I need the recorded test outcome for `c1ccc([P+](c2ccccc2)(c2ccccc2)C2Sc3ccccc3S2)cc1` , thank you.
Marked response: inactive

Exam item: I would be grateful if you could indicate the recorded call for CC(C)(C)OC(=O)N1CCC23CCCC2C(=O)CC=C13 (centres undefined) .
Marked response: inactive

Exam item: Assay outcome for `COc1ccc2[nH]cc(/C=C(/C)c3ccncc3)c2c1` : what was it?
Marked response: inactive

Exam item: Hi, do you know how `COc1ccc2c(NCCCCCCNc3c4ccccc4nc4cc(OC)ccc34)c3ccccc3nc2c1` came out in this test?
Marked response: active

###

system: CCRF-CEM; test: NCI tumour cell line growth inhibition, 48 h
Active and inactive are the calls of the source. No stated cut-off is given here; in the data, active = GI50 up to about 1.1 µM and inactive = higher.
Choose the fitting class; nothing outside active, inactive is accepted.

Exam item: Status in this test for CC1CN1c1c(C(=O)/C=C/c2ccc(Cl)cc2)c(-c2ccccc2)nn(C)c1=O (configuration not stated) ?
Marked response: inactive

Exam item: Test call for this molecule, please: `COc1cc(N(C)C)c(OC)cc1/C=C\c1ccnc2ccccc12`
Marked response: inactive

Exam item: Dear colleague, could you share the recorded outcome for BrC1(Br)C2/C=C\CCCCC21 (configuration not stated) when you have a moment?
Marked response: inactive

Exam item: Just curious, what result did `O=[N+]([O-])c1ccccc1S(=O)(=O)c1ccccc1[N+](=O)[O-]` get here?
Marked response: inactive

Exam item: Short answer needed: outcome of this test for `COc1ccc2[nH]cc(/C=C(/C)c3ccncc3)c2c1` ?
Marked response: inactive

Exam item: Each molecule tested received a call. Report the one for CCC1CN2CCC3(c4ccccc4)CC(C(=O)OC)=CC1C23 (configuration not stated) .
Marked response: inactive

Exam item: Assay outcome for `O=C1C(OC(=O)c2ccccc2)=C(c2ccc(O)cc2)C(=O)C(OC(=O)c2ccccc2)=C1c1ccc(O)cc1` : what was it?
Marked response: inactive

Exam item: What did this assay record as the result for O=C(Cc1ccccc1)N/N=C(\C1=Nc2ccc([N+](=O)[O-])cc2NC1O)C(O)c1ccc([N+](=O)[O-])cc1 (configuration not stated) ?
Marked response: inactive

Exam item: What outcome does the record of this test show for `CCOC(=O)c1c(NC(=S)Nc2ccc(C)cc2)sc2c1CCN(C)C2` ?
Marked response: inactive

Exam item: Outcome? `CC1C2=CC=C(O2)C(C)(C)C2=CC=C(O2)C(C)(C)C2=CC=C(O2)C(C)(C)C2=CC=C1O2`
Marked response: inactive

Exam item: Look up the recorded call for COC1C(O)C(C)OC(O[C@@H]2C[C@H]3CC[C@@H]4[C@H](CC[C@]5(C)[C@@H](C6=CC(=O)OC6)CC[C@]45O)[C@@]3(C)[C@H](O)C2)C1O (some centres not stated) in this test.
Marked response: active

Exam item: Fill in: this test's call for `COC(=O)c1c(C)nc(C)c(NO)c1-c1ccccc1C(F)(F)F` is ___
Marked response: inactive

Exam item: What call does the record list for O=C(O)CNC(=O)c1ccc2cc(C(=O)N3CC(CCl)c4ccc([N+](=O)[O-])cc43)[nH]c2c1 (configuration not stated) ?
Marked response: inactive

Exam item: Recorded test call requested for `COc1ccc2c(NCCCCCCNc3c4ccccc4nc4cc(OC)ccc34)c3ccccc3nc2c1`
Marked response: active

Exam item: How was `COc1ccc2c3c([nH]c2c1)CCN(CCCC(=O)c1ccc(F)cc1)C3` classified in this test?
Marked response: inactive

Exam item: Entry `COCCOCCOC1=C(Cl)C(=O)c2c(O)ccc(O)c2C1=O` : call = ?
Marked response: active

Exam item: For O=P(O)(O)OC1C(OP(=O)(O)O)C(OP(=O)(O)O)C(OP(=O)(O)O)C(OP(=O)(O)O)C1OP(=O)(O)O (configuration not stated) , what call appears in the results of this test?
Marked response: inactive

Exam item: What call does the record list for CC1(C)OCC(C2OC3OC(C)(C)OC3C2c2ccccc2)O1 (configuration not stated) ?
Marked response: inactive

Exam item: So what was the verdict on `Cc1cc(=O)n2nc(CN3CCCCC3)sc2n1` in this test?
Marked response: inactive

Exam item: Identify the outcome logged in this assay for the molecule shown: `Oc1ccccc1-c1n[nH]c(-c2ccccc2O)n1`
Marked response: inactive

Exam item: Could you check what this test reported for `O=C(c1ccc(Cl)cc1Cl)N(C(=O)N1CCC(c2ccccc2)CC1)c1ccccc1` ?
Marked response: inactive

Exam item: Hi, sorry to bother you, what did the test record for `CCCCC#CS(=O)(=O)C(F)(F)F` ?
Marked response: inactive

Exam item: Name the outcome recorded for `CC(=O)N1C=Cc2c(c(C)c3c([nH]c4ccccc43)c2C)C1` in the assay.
Marked response: inactive

Exam item: What did this assay record as the result for `Cc1ccc(Oc2ccc(C)cc2N)cc1` ?
Marked response: inactive

Exam item: Any idea what this test logged for `CC1=NN(c2ccccc2)C(=O)C1=C1SCCS1` ?
Marked response: inactive

Exam item: Short answer needed: outcome of this test for CC1(C)C(OC(=O)c2ccccc2)C[C@]23CCC[C@](C)(C[C@@H](O)C12)C3 (some centres not stated) ?
Marked response: inactive

Exam item: Given `c1ccc([P+](c2ccccc2)(c2ccccc2)C2Sc3ccccc3S2)cc1` , state the outcome it received in this test.
Marked response: inactive

###

test system: RXF 393; assay: NCI tumour cell line growth inhibition, 48 h
The source made the active and inactive calls. No stated cut-off is given here; in the data, active = GI50 up to about 1.1 µM and inactive = higher.
Can you answer with just one of these options? t (active), f (inactive)

Exam item: // outcome(item) with item = `Cc1ccc(/N=N/c2c(C)nn(-c3ccccc3)c2C)c(Br)c1`
Marked response: f

Exam item: Query: recorded result category for `N=C(N)N/N=C\c1c(-c2ccccc2)nc2sccn12` in this test
Marked response: f

Exam item: Called result for `CC(=O)NNc1nc(C)c(C(/C=C/c2ccc(NC(C)=O)cc2)=N/NS(=O)(=O)c2ccc(C)cc2)s1`
Marked response: f

Exam item: Hello, I am checking results. What call was entered for `CC(=O)c1cc2ccccc2[n+]([O-])c1N` ?
Marked response: f

Exam item: Per the records of this test, what outcome belongs to COc1cc([C@@H]2c3cc4c(cc3[C@@H](OC(=O)c3cccc(N)c3)C3COC(=O)[C@@H]32)OCO4)cc(OC)c1O (stereo not given in full) ?
Marked response: t

Exam item: Entry COc1ccc(C23OCC(Cc4cc(OC)c(OC)cc42)C3COC(C)=O)cc1OC (stereo not given) : call = ?
Marked response: f

Exam item: Can you look up the reported call for NC(=O)C(Nc1c(Cl)cccc1Cl)c1cc2cc(Br)ccc2nc1Cl (stereo not given) for me?
Marked response: f

Exam item: What was the test verdict on CC(C)(C)OC(=O)N1CCCC1C(=O)NC(c1ccccc1)c1ccccc1 (stereo not given) ?
Marked response: f

Exam item: Tell me the assay call for `CN(C)CCNC(=O)c1cccc2cc3c(Cl)cccc3nc12` please.
Marked response: f

Exam item: Identify the outcome logged in this assay for the compound shown: CCOC(=O)C(CC(C)C)NC(=O)C(Cc1ccc(N(CCCl)CCCl)cc1)NC(C)=O (stereo not given)
Marked response: f

Measured values drawn from ChEMBL document CHEMBL1201862 for this set.
